ASSAY TEXT: NCI Yeast Anticancer Drug Screen. Data for the rad50EPP+ strain (AID 151);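 also: 0% = growth of vehicle-treated control cultures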
CONDITION SET: S. cerevisiae rad50 mutant strain, at 11.0 µM, hits give high values
About 79,000 compounds went through this panel and 15% of them were active in at least one assay; those are over-represented in the sample as a whole.
READOUT KIND: growth inhibition (%)
Report the value in % with no unit label.

These recorded examples may help you get a feel for the data.
compound=CN(C)c1ccc(C(C#N)=C(C#N)C#N)cc1 readout_kind="growth inhibition" recorded_value=7
compound=NNc1c(F)c(F)cc(F)c1F readout_kind="growth inhibition" recorded_value=21
compound=O=C1C=CC(=O)N1c1ccc2c(c1)Cc1cc(NC(=O)C(F)(F)F)ccc1-2 readout_kind="growth inhibition" recorded_value=88

Kindly review the next compound as well.
Item: COc1ccc(/C=C2\SC(=S)N(/C=C/c3nc4ccccc4[nH]c3=O)C2=O)cc1OC | growth inhibition: 21

====

ASSAY TEXT: NCI Yeast Anticancer Drug Screen. Data for the mec2-1 strain (AID 157)
CONDITION SET: S. cerevisiae mec2-1 strain, at 1.2 µM, hits give high values
The panel holds about 79,000 compounds, 15% with a hit somewhere; the sample as a whole holds those more often.
Quick reference: growth inhibition of the listed items.
Report the value in % with no unit label.

molecule="OC1(c2ccccc2)CSC2=Nc3ccccc3C3CCN1N23 (stereo not given)" recorded_value=-86
molecule=O=C1CSc2cc([N+](=O)[O-])ccc2N1 recorded_value=-4
molecule=CSC(=S)Nc1cccc(C)n1 recorded_value=-61
molecule="CC1C(NNc2ccccc2)Oc2cc3c(cc2C1c1ccccc1O)OCO3 (stereo not given)" recorded_value=7
molecule=NCCNc1ccc(NCCN)c2c1C(=O)c1c(O)ccc(O)c1C2=O recorded_value=-10
molecule=CCCCCCCCCCCCCCCCCCNC recorded_value=14
molecule=Cc1ccc2ccc(O)cc2c1 recorded_value=-37
molecule=O=[N+]([O-])c1ccc([N+]2=NC(c3ccccc3)=NN(c3ccccc3)C2)cc1 recorded_value=-2

Item: COC(=O)CSSCc1ccc([N+](=O)[O-])cc1 | growth inhibition: -2

Item: Nc1ccn(C2OC(CO)C3[O][Sn]([c]4ccccc4)([c]4ccccc4)[O]C32)c(=O)n1 (stereo not given) | growth inhibition: 0

====

ASSAY TEXT: NCI Yeast Anticancer Drug Screen. Data for the mec2-1 strain (AID 157)
CONDITION SET: S. cerevisiae mec2-1 strain, at 50.0 µM
Compounds without any hit were thinned out: in the full panel of roughly 79,000, 15% have a hit. Calls of active or inactive are those of the source. No stated cut-off is given here; in the data, active means growth inhibition above about 70%; inactive means the rest.
Please state which outcome applies, choosing from class 1 (active), class 0 (inactive)

[ask] Hey, what did the test say about Cc1ccc(S(=O)(=O)NCCSS(=O)(=O)c2ccc(C)cc2)cc1 ?
[reply] class 1

[ask] Hey, what did the test say about CC(C)C1=CC2=C[C@H](O)[C@H]3C(C)(C)CCC[C@]3(C)C2=C(O)C1=O ?
[reply] class 1

[ask] Hey, what did the test say about CCCCN(CCCC)CCSc1ccc(Cl)cc1 ?
[reply] class 1

====

ASSAY TEXT: NCI Yeast Anticancer Drug Screen. Data for the rad50 strain (AID 155);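 also: 0% = growth of vehicle-only cultures of the same strain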
CONDITION SET: S. cerevisiae rad50 strain growth inhibition; at 50.0 µM
This is part of a sample that, as a whole, favours compounds with a hit. Of some 79,000 tested, about 15% had one in any assay. The source made the active and inactive calls. No stated cut-off is given here; in the data, active means growth inhibition above about 70%; inactive means the rest.
Please state which outcome applies, choosing from active, inactive

Consider the worked cases shown below.
compound=O=C(O)c1ccccc1-c1ccccc1C(=O)Nc1ccc2c(c1)Cc1ccccc1-2 cat=active
compound=CC1=C(SCCO)C(=O)c2ccccc2C1=O cat=active

[ask] Hey, what did the test say about O=Nc1cccnc1N=O ?
[reply] active

[ask] Hey, what did the test say about CC(C)/C(Cl)=N\OC(=O)Nc1ccc(F)cc1 ?
[reply] inactive

[ask] Hey, what did the test say about NC(=S)N/N=C\c1nccc2ccccc12 ?
[reply] active

[ask] Hey, what did the test say about COC(=O)C1=C(C(=O)OC)C2(C)C=CC1O2 (stereo unspecified) ?
[reply] active
